- measured-target: T1, wild type C5a anaphylatoxin chemotactic receptor 1 (C5aR), reconstituted in DOPC/CHS liposomes (human, UniProt P21730 1-350, sulfonated tyrosine residues (Y11 and Y14))
- T1 construct: C5a anaphylatoxin chemotactic receptor 1 (C5aR), human; wild type; Receptors lie in both orientations in the bilayer; also called C5aR^WT; wtC5aR; source: HEK-293S GnTI- cells (BacMam), purified (Ni-NTA, anti-Flag M1 resin, SEC), reconstituted in DOPC/CHS liposomes; not shown: His8, C-terminal, kept
- T1 sequence (looked up): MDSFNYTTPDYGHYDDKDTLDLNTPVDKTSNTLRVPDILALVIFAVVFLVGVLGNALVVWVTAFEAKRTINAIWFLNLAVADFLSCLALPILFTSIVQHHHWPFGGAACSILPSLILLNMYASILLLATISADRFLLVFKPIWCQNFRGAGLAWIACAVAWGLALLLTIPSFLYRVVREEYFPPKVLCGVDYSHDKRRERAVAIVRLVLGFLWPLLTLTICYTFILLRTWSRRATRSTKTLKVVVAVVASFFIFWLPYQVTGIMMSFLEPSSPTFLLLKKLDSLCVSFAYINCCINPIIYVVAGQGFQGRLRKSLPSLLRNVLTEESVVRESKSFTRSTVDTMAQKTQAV
- experiment: AFM dynamic force spectroscopy (FV- and FD-based AFM, Friddle-Noy-de Yoreo fit); C5a tethered by its N-terminal His6-tag to a tris-NTA-Ni2+ PEG27 tip; C5aR (wild type, mutant, or wild type incubated with PMX53) in DOPC/CHS liposomes adsorbed on mica; imaging buffer 20 mM HEPES, 300 mM NaCl; ≈24 °C; Kd calculated from ΔGbu = kbT × ln(0.018 Kd)
- cond: both partners purified
pKd: −log10 of the molar value.
reported-metric: pKd

* complement C5a anaphylatoxin with N-terminal His6-tag (ligand, human, UniProt P01031 678-751, looked up, C5a anaphylatoxin, the 74-amino acid cut product of complement C5; numbers count on: C5a itself (R74 is its C-terminal residue); Tethered by its His6-tag to a tris-NTA-Ni2+ PEG27 AFM tip; C5a from R&D Systems is named only for the GTPgammaS assay; also called C5a ligand; endogenous C5a ligand; not shown: His6, N-terminal, kept) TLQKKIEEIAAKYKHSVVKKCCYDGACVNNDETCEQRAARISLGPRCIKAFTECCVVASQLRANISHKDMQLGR | ~8.35
